molecular target: Sodium/potassium-transporting ATPase; assay: Inhibitory activity against Na+/K+ ATPase was determined
pIC50: −log10 of the molar value.
This section presents molecules with their documented pIC50 values.
OBSERVATION_TYPE: pIC50

[[record]]
molecule = "C[C@]12CC/C(=N/OCCN)C[C@@H]1[C@H](O)CC1C2CC[C@]2(C)C(O)CC[C@@H]12 (some centres not stated)"
target_system = "Sodium/potassium-transporting ATPase"
inequality_symbol = "="
result_value = 4.92

[[record]]
molecule = "C[C@H]1/C(=C/C(=O)OCCN(C)C)CCC2C1C(=O)CC1C(C)(C)[C@@H](O)CC[C@]21C (some centres not stated)"
target_system = "Sodium/potassium-transporting ATPase"
inequality_symbol = "="
result_value = 5.30

[[record]]
molecule = "C[C@]12CC/C(=N\\OCCN)C[C@@H]1[C@H](O)C[C@@H]1[C@@H]2CC[C@]2(C)C(O)CC[C@@H]12 (some centres not stated)"
target_system = "Sodium/potassium-transporting ATPase"
inequality_symbol = "="
result_value = 5.70

[[record]]
molecule = "C[C@]12CCC(=NOCCN)C[C@@H]1[C@@H](O)C[C@@H]1[C@@H]2CC[C@]2(C)C(=O)CC[C@@H]12 (stereo in doubt; 22n)"
target_system = "Sodium/potassium-transporting ATPase"
inequality_symbol = "="
result_value = 5.60

[[record]]
molecule = "C[C@]12CC/C(=N\\OCCCN)C[C@@H]1[C@H](O)C[C@@H]1[C@@H]2CC[C@]2(C)C(O)CC[C@@H]12 (some centres not stated)"
target_system = "Sodium/potassium-transporting ATPase"
inequality_symbol = "="
result_value = 5.70

[[record]]
molecule = "C[C@]12CC/C(=N/OCCCN)C[C@@H]1[C@H](O)CC1C2CC[C@]2(C)C(O)CC[C@@H]12 (some centres not stated)"
target_system = "Sodium/potassium-transporting ATPase"
inequality_symbol = "="
result_value = 5.52

[[record]]
molecule = "C[C@]12CC/C(=N\\OCCN)C[C@@H]1C(=O)C[C@@H]1[C@@H]2CC[C@]2(C)C(O)CC[C@@H]12 (some centres not stated)"
target_system = "Sodium/potassium-transporting ATPase"
inequality_symbol = "="
result_value = 6.22

[[record]]
molecule = "C[C@]12CCC(=NOCCN)C[C@@H]1[C@@H](O)C[C@@H]1[C@@H]2CC[C@]2(C)C(=O)CC[C@@H]12 (stereo in doubt; 22g)"
target_system = "Sodium/potassium-transporting ATPase"
inequality_symbol = "="
result_value = 5.92

[[record]]
molecule = "C[C@]12CC/C(=N\\OCCN)C[C@@H]1C(O)C[C@@H]1[C@@H]2CC[C@]2(C)C(O)CC[C@@H]12 (some centres not stated)"
target_system = "Sodium/potassium-transporting ATPase"
inequality_symbol = "="
result_value = 5.00

[[record]]
molecule = "C[C@]12CCC(=NOCCN)C[C@@H]1[C@H](O)CC1C2CC[C@]2(C)C(O)CC[C@@H]12 (some centres not stated)"
target_system = "Sodium/potassium-transporting ATPase"
inequality_symbol = "="
result_value = 5.80

[[record]]
molecule = "C[C@]12CC/C(=N\\OCCCN)C[C@@H]1C(=O)C[C@@H]1[C@@H]2CC[C@]2(C)C(=O)CC[C@@H]12"
target_system = "Sodium/potassium-transporting ATPase"
inequality_symbol = "="
result_value = 6.10

[[record]]
molecule = "CC(=O)NCCO/N=C1\\CC[C@@]2(C)[C@H](C1)C(=O)C[C@@H]1[C@@H]2CC[C@]2(C)C(=O)CC[C@@H]12"
target_system = "Sodium/potassium-transporting ATPase"
inequality_symbol = "<"
result_value = 5.00


Numbers sourced from ChEMBL document CHEMBL1144898.
